Value source: ChEMBL document CHEMBL2034871

UniProtKB P08684: recorded IC50 for assorted compounds
Sequence (P08684 whole entry): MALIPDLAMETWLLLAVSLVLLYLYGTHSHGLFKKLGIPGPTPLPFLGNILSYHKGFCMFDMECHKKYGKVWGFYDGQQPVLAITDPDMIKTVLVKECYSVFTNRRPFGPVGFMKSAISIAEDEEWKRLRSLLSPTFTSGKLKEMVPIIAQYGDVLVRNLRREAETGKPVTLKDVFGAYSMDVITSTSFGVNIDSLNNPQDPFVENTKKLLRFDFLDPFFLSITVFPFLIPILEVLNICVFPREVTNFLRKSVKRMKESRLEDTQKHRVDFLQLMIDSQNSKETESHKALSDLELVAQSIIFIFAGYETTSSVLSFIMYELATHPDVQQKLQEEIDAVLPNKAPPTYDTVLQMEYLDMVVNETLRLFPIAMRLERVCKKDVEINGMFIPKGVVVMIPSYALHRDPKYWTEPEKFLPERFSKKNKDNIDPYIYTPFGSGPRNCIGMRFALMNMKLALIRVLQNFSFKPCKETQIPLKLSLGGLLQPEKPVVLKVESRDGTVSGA
Give the value in µM but do not write µM after it.

| Compound | IC50 [µM] |
| --- | --- |
| CNC1CCCC(c2c[nH]c3ccc(NC(=N)c4cccs4)cc23)C1.Cl (single isomer, unassigned; (+)) | 100 |

Note: attention shifts to another entry.
# IC50 measured on UniProtKB P08684 for item `CN[C@H]1CC[C@@H](c2c[nH]c3ccc(NC(=N)c4cccs4)cc32)CC1` = 57.3

---

Biological target: UniProtKB P11712
Sequence (P11712 whole entry): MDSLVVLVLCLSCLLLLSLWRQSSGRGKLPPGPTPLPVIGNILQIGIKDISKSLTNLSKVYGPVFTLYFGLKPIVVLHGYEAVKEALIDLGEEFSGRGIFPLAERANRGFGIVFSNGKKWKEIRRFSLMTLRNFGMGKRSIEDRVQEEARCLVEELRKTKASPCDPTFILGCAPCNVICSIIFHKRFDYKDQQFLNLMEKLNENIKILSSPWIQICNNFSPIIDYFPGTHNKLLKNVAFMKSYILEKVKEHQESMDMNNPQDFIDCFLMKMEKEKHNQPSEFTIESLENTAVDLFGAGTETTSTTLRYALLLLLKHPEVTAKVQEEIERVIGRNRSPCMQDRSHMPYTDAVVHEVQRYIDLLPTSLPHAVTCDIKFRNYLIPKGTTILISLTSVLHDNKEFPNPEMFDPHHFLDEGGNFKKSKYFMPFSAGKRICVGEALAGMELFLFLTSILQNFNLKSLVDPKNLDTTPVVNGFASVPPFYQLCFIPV
Assay: Inhibition of CYP2C9
Assay type: ADME
Conditions: read-out: IC50
Measured attribute: IC50 (µM)
Give the value in µM but do not write µM after it.

# IC50 measured on UniProtKB P11712 for item `CCN[C@H]1CC[C@@H](c2c[nH]c3ccc(NC(=N)c4cccs4)cc32)CC1` = 21.5
